experiment: Clearance in beagle dog at 1 mg/kg, iv by LC/MS/MS analysis; assay type: ADME, organism-based, Canis lupus familiaris; set-up: dose 1 mg/kg, route intravenous; settings: in vivo
measured-attribute: clearance (mL/min/kg)
Record the value in mL/min/kg, omitting the unit from your answer.

Input: Which clearance value is on record for O=C(c1nn2c(C(F)(F)F)cc(C3CC3)cc2c1Cl)N1CCN([C@H]2C[C@@H]3C[C@@H]3[C@@H]2O)C(=O)C1 ?
Output: 6

###

assay: Volume of distribution at steady state in CD rat at 1 mg/kg, iv by LC/MS/MS analysis; assay type: ADME, organism-based; parameters: dose 1 mg/kg, route intravenous; settings: in vivo, read-out: Vdss
measured-attribute: Vd (L/kg)
Record the value in L/kg, omitting the unit from your answer.

Input: Which Vd value is on record for O=C(c1nn2c(C(F)(F)F)cc(C3CC3)cc2c1Cl)N1CCN([C@H]2C[C@@H]3C[C@@H]3[C@@H]2O)C(=O)C1 ?
Output: 2
